Reference source for all entries: patent US20250215104A1

Reported koff values follow for various binders
# TARGET OR SYSTEM: T1, cynomolgus suPAR (cynomolgus, UniProt Q9GK78 23-303, limits assumed)
# T1 construct: Target antigen of the off-rate screen; also called cynomolgus uPAR; cynoPLAUR-His
# T1 sequence (Q9GK78 23-303 limits assumed): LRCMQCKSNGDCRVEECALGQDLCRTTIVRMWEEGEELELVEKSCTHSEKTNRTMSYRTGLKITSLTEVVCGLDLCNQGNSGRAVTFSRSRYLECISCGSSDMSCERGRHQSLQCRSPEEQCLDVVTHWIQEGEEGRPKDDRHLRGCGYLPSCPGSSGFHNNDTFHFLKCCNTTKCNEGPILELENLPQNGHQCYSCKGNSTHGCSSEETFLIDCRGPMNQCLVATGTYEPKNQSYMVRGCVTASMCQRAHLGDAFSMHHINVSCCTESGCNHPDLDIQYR
# ASSAY METHOD TEXT: BLI (Octet) off-rate screen of scFv clones

[
  {
    "BINDER": "suPAR_DB03_B03 (scFv, V domains shown, screened as scFv) VH: QVQLVQSGAEVKKPGASVKVSCKASGYTFTNYYMHWVRQAPGQGLEWMGWIDPENGSTIYDQKFQGRVTMTRDTSTSTVYMELSSLRSEDTAVYYCARGYDVDWFVYWGQGTLVTVSS VL: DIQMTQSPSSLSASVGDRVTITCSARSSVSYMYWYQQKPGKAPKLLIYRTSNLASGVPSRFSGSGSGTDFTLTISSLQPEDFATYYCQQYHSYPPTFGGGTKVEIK",
    "koff": "0.00026 s⁻¹"
  },
  {
    "BINDER": "suPAR_DB03_C10 (scFv, V domains shown, screened as scFv) VH: QVQLVQSGAEVKKPGASVKVSCKASGYTFTSYYMHWVRQAPGQGLEWMGWIDHEGGSTIYAQKFQGRVTMTRDTSTSTVYMELSSLRSEDTAVYYCASGYDVDWFVYWGQGTLVTVSS VL: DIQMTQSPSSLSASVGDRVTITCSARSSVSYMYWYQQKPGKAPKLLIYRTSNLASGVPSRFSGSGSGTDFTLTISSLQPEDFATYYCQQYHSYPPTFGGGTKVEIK",
    "koff": "0.000301 s⁻¹"
  }
]
